Kindly find below IC50 information for human ACC2 (Homo sapiens (Human)) taken from the literature.
assay-readout: IC50 (nM)

{"columns": ["compound", "value-units", "IC50"],
 "data": [
  ["C[C@H](NC(=O)c1cn[nH]c1)c1ccc(CN2Cc3ccc(OCC4CC4)cc3C(F)C2)cc1 (stereo partly shown)", "nM", 52],
  ["CCOc1ccc(C#Cc2ccc(C(C)C(=O)Nc3ccnnc3)cc2)cc1 (stereo not shown)", "nM", 130]
]}

[A] C[C@H](NC(=O)c1cncnc1)c1ccc(CN2CC(=O)c3cc(OCC4CC4(F)F)ccc3C2)cc1 (stereo partly shown)
[B] CC(=O)N[C@@H](C)c1ccc(OC2CCN(c3ccc(OC4CC4)cn3)C2)cc1 (stereo partly shown)
Input: Problem: Given the entries A and B , determine which has the lower reported IC50. # reply format: chosen label
Output: B
(B: 384 nM, A: 819 nM)

[a] CCCOc1ccc(N2CCC(c3ccc(C(C)C(=O)NCC)cc3)CC2)cc1 (stereo not shown)
[b] CCNC(=O)C(C)c1ccc(C#Cc2ccc(OCC3CC3(F)F)cc2)cc1 (stereo not shown)
Input: Which record shows the lower IC50: the first, a , or the second, b ? State the label of the item chosen.
Output: b
(b: 90 nM, a: 180 nM)

[a] COc1cc(C(=O)N2CCC3(CC2)Cc2ccc(-c4cncc(C(=O)O)c4)cc2C(=O)O3)nc2c(C3CC3)cccc12
[b] C[C@H](NC(=O)C1CC(F)C1)c1ccc(C2CN(c3ccc4c(c3)OCCO4)C2)cc1 (stereo partly shown)
Input: From the recorded data, which exceeds the other in IC50: a or b ? Lab note: record the label of whichever item you select.
Output: b

###

// compounds with IC50 on human ACC2 (Homo sapiens (Human), UniProt O00763), multi-source literature
assay-readout: IC50 (nM)

{"columns": ["compound", "target-under-test", "test-result"],
 "data": [
  ["CC(C(=O)N[C@@H](C)c1ccc(C2CN(c3ccc(OCC4CC4)cc3)C2)cc1)C(F)(F)F (stereo partly drawn)", "human ACC2 (Homo sapiens (Human), UniProt O00763)", 2700],
  ["CC(=O)NC(C)Cc1ccc(C#Cc2ccnc(NCC3CC3)n2)cc1 (stereo not drawn)", "human ACC2 (Homo sapiens (Human), UniProt O00763)", 1900],
  ["CC(=O)N[C@@H](C)c1ccc(CN2CCc3c(Br)cccc3C2)cc1", "human ACC2 (Homo sapiens (Human), UniProt O00763)", 148]
]}

[a] CC(=O)N[C@@H](C)c1ccc(O[C@@H]2CCN(c3ccnc(OCC(C)(C)C)c3)C2)cc1
[b] Cc1ccc(-c2ccc(Cl)cc2)cc1C1=C(O)C2(CCCCC2)CNC1=O
[c] CCNC(=O)C(C)c1ccc(C#Cc2ccc(OCCn3cccc3)cc2)cc1 (stereo not drawn)
[d] CC(C(=O)NC1CC1C)c1ccc(O[C@@H]2CCN(c3ncnc(OCC(C)(C)O)c3F)C2)cc1 (stereo partly drawn)
[e] CC(=O)N[C@@H](C)c1ccc(C#Cc2cnc(NCc3ccccc3)nc2)cc1
Input: Sequence the entries by IC50, beginning with the highest number. Record the ranking as a list of labels in the requested order.
Output: e, b, d, c, a
(e: 7300 nM, b: 4280 nM, d: 259 nM, c: 170 nM, a: 30 nM)

[I] CC(Cc1ccc(C#Cc2ccc(-c3ccc(F)cc3)cn2)cc1)NC(=O)C1CC1 (stereo not drawn)
[II] CC(=O)NC(C)c1ccc(CN2CCc3cc(OCCC(F)(F)F)ccc3C2)cc1 (stereo not drawn)
Input: Identify the entry with the larger IC50. Options: I and II Select an item and report its label.
Output: I
(I: 450 nM, II: 95 nM)

[P] C[C@H](NC(=O)C1CC1)c1ccc(O[C@@H]2CCN(c3ccnc(OCC4CC4)c3)C2)cc1
[Q] CC(Cc1ccc(C2CN(c3ccc4c(c3)OCCO4)C2)cc1)NC(=O)C(F)F (stereo not drawn)
Input: Given the listed items, does P or Q have the lesser reported IC50? Write down the label of the entry you select.
Output: P

[1] CC(=O)N[C@@H](C)c1ccc(O[C@@H]2CCN(c3ccnc(OC(C)C)c3Cl)C2)cc1
[2] CC(=O)N[C@@H](C)c1ccc(CN2CCc3c(cccc3C(=O)NCc3ccccc3)C2)cc1
Input: Which value of IC50 is greater, the one for 1 or the one for 2 ? Refer to your chosen item by its label in the answer.
Output: 2

[I] COCCN(C)c1cccc(N2CC[C@@H](Oc3ccc([C@H](C)NC(C)=O)cc3)C2)n1
[II] CCCOc1ncnc(N2CC(c3ccc([C@H](C)NC(C)=O)cc3)C2)c1Cl
[III] CCOc1ccc(N2CC(c3ccc(CCC(C)NC(C)=O)cc3)C2)cc1 (stereo not drawn)
[IV] C[C@H](NC(=O)Cc1cncnc1)c1ccc(CN2CCc3cc(OCC4CC4)ccc3C2)cc1
Input: Sort these compounds on IC50 so the largest reading comes first. Reply with the item labels sorted in the order that was asked for.
Output: II, III, I, IV
(II: 680 nM, III: 410 nM, I: 142 nM, IV: 82 nM)

[a] COc1ccc(C#Cc2ccc(CC(C)NC(C)=O)cc2)c(C#N)c1 (stereo not drawn)
[b] C=C(C)CNC(=O)C(C)c1ccc(O[C@@H]2CCN(c3ccc(OCC4CC4(F)F)cn3)C2)cc1 (stereo partly drawn)
[c] CC(=O)N[C@@H](C)c1ccc(CN2Cc3ccc(OCC4CCC4)cc3C(O)C2)cc1 (stereo partly drawn)
[d] CC(=O)N[C@@H](C)c1ccc(OC2CCN(c3nc(C)ccc3F)C2)cc1 (stereo partly drawn)
Input: Hello, I need these entries ordered by IC50, highest reading first. Thanks! Please list the labels in the order you were asked to rank them.
Output: a, b, d, c
(a: 1200 nM, b: 418 nM, d: 256 nM, c: 55 nM)

[I] CC(C)Oc1cc(N2CCC(Oc3ccc([C@H](C)NC(=O)C(C)C#N)cc3)C2)ccn1 (stereo partly drawn)
[II] CC(=O)NC(C)Cc1ccc(C#Cc2cccc(C(=O)N3CCCC3)c2)cc1 (stereo not drawn)
Input: Recorded IC50 values differ for I and II ; which one is higher? // caller expects the label of the chosen entry
Output: II
(II: 6200 nM, I: 970 nM)

[P] C[C@H](NC(=O)C1(O)CC1)c1ccc(CN2CCc3cc(OCC4CC4)ccc3C2)cc1
[Q] CC(=O)NC(C)Cc1ccc(C#Cc2cnc(OCC3(C)CC3)nc2)cc1 (stereo not drawn)
Input: Endpoint returns whichever of P and Q has the numerically higher IC50. Selection: enter the item's label.
Output: Q
(Q: 430 nM, P: 150 nM)

###

# merged literature set: pIC50 with human ACC2 (Homo sapiens (Human))
pIC50: −log10 of the molar value.
assay-readout: pIC50

[I] CC(=O)NCCc1ccc(C#Cc2ccc(OC(C)C)cc2)cc1
[II] C[C@H](NC(=O)C1CC1)c1ccc(I)cc1
[III] C[C@H](NC(=O)c1cnn(C)c1N)c1ccc(CN2CCc3cc(OCC4CC4(F)F)ccc3C2)cc1 (some centres unmarked)
[IV] COc1ccc(C#Cc2ccc(CC(C)NC(C)=O)cc2)cc1OC (centres unmarked)
Input: Reorder the list: decreasing pIC50. Order the labels as requested and give them as your answer.
Output: III, I, IV, II
(III: 6.68, I: 6.14, IV: 5.80, II: 4.61)

[A] C=C(C)COc1cc(N2CC[C@@H](Oc3ccc([C@H](C)NC(C)=O)cc3)C2)ccn1
[B] CCCOc1ccc(C#Cc2ccc(C(C)C(=O)NCC)cc2)c(OC)c1 (centres unmarked)
[C] CC(=O)NC(C)c1ccc(CN2CCc3cc(C(F)(F)F)ccc3C2)cc1 (centres unmarked)
[D] CCOc1ccc(C#Cc2ccc(CC(C)NC(=O)c3cnon3)cc2)cc1 (centres unmarked)
[E] C[C@H](NC(=O)N(C)C)c1ccc(OC2CCN(c3ccnc(OCC(F)F)c3)C2)cc1 (some centres unmarked)
Input: With regard to pIC50, arrange the entries in ascending order, please. # respond with the labels, arranged in the requested order
Output: D, B, C, E, A
(D: 6.03, B: 6.29, C: 6.53, E: 6.86, A: 7.11)

[I] CC(Cc1ccc(C#Cc2cnc(NC3CCC3)nc2)cc1)NC(=O)N(C)C (centres unmarked)
[II] CC(=O)N[C@@H](C)c1ccc(O[C@@H]2CCN(c3ccnc(OCC4CC(F)(F)C4)c3)C2)cc1
Input: Please choose the item with the lower pIC50 value from this pair: I and II Output the label that corresponds to your choice.
Output: I
(I: 6.92, II: 7.19)

[a] CC(=O)N[C@@H](C)c1ccc(CN2Cc3ccc(OC4CCC4)cc3C(O)C2)cc1 (some centres unmarked)
[b] COC(=O)c1cncc(-c2ccc3c(c2)C(=O)OC2(CCN(C(=O)c4cc(OC)c5c(C)cn(C6CC6)c5c4)CC2)C3)c1
[c] CC(=O)NC(C)c1ccc(CN2CCc3c(ccc(OCCC4CC4)c3Cl)C2)cc1 (centres unmarked)
Input: Order the items by recorded pIC50; the first position goes to the largest value. Output spec: a listing of the labels in the requested order.
Output: c, b, a
(c: 7.21, b: 6.66, a: 6.38)

[A] CC(CCc1ccc(Oc2ccc(OC(C)C)nc2)cc1)NC(N)=O (centres unmarked)
[B] COCCOc1ccc(N2CCC(Oc3ccc([C@H](C)NC(C)=O)cc3)C2)cc1 (some centres unmarked)
Input: In terms of reported pIC50, does A or B have the smaller number? Response format: the label of the selected entry.
Output: B
(B: 6.25, A: 6.82)
